QUANTITY: IC50
Include the unit after the number when you answer.

Print BTK(h) (Homo sapiens (Human), UniProt Q06187) IC50 for Nc1nccc2c1n(-c1ccc(Oc3ccccc3)cc1)c(=O)n2[C@@H]1CCCN(C(=O)C(O)CO)C1 (stereo partly shown) [Formula II] .
279 nM
